Hi there, I'd appreciate the recorded melting point for every entry that follows.
Where a name gives a salt, the structure may show the parent alone.

// known answers, use as guide
CC(C)=CCC/C(C)=C/C(O)C/C(O)=C(\C#N)C(=O)Nc1ccc(C(F)(F)F)cc1 (stereo not drawn) ... 114 to 116 °C
Cc1ccc(C(O)C/C(O)=C(\C#N)C(=O)Nc2ccc(C(F)(F)F)cc2)cc1 (stereo not drawn) [Example 11] ... 170 to 171 °C

IN: Please report the recorded melting point for CC(O)C/C(O)=C(\C#N)C(=O)Nc1ccc(C(F)(F)F)cc1 (stereo not drawn) (as salt: salt) .
OUT: 135 to 138 °C

* * *

Would you kindly list melting point for each of these compounds?

N#C/C(C(=O)Nc1ccc(C(F)(F)F)cc1)=C(/O)CC(O)/C=C/c1ccccc1 (stereo not drawn) [Example 25] ... 168 to 172 °C

Quick batch: melting point for everything below.
1. C=CC(O)C/C(O)=C(\C#N)C(=O)Nc1ccc(C(F)(F)F)cc1 (stereo not drawn) [Example 39]
2. CC(C)(O)C/C(O)=C(\C#N)C(=O)Nc1ccc(C(F)(F)F)cc1 [Example 38]

OUT:
1: 133 to 135 °C; 2: 145 to 148 °C
